System: MS2 coat protein
Test: apparent KD of MS2 coat protein; designed switch direction (-1 OFF switch, 1 ON switch): -1; higher = weaker reporter binding
Details: input ligand: none
endpointName: apparent KD of MS2 coat protein (nM)

>  <seqString>
AUUAAAGACCGAGGAUAUCGAGGAAAUACACUGCGAGAAGGCGGGUACUCGGACGAUUCGACAUGAGGAUCACCCAUGUGCACA [Tixequ] (Eterna round: R96, puzzle: Exclusion NG 1)

>  <targetSystem>
MS2 coat protein

>  <endpointName>
apparent KD of MS2 coat protein

>  <valueObserved>
25.3

$$$$
>  <seqString>
UAUUAGCAAGCGAGAUCCGACAUGAGGAUCACCCAUGUGCUCGUCUUAUAAGGGAGGGAGGGAAAACCCUCCCUCCC [Elimod 9 - Jieux - Sensor, turn-off variant 1] (Eterna round: R97, puzzle: Sensor, turn-off variant 1)

>  <targetSystem>
MS2 coat protein

>  <endpointName>
apparent KD of MS2 coat protein

>  <valueObserved>
21.2

$$$$
>  <seqString>
GGAUUACAUGAGGAUCACCCAUGUCAGGAUAUACGAUCAUAUGCCGAAAGGCAUAUGAGUAGAAGGGACAAUAU [AK-MS2ROC-r4-exclusion1-2.0] (Eterna round: R97, puzzle: Exclusion 1)

>  <targetSystem>
MS2 coat protein

>  <endpointName>
apparent KD of MS2 coat protein

>  <valueObserved>
36.1

$$$$
>  <seqString>
CCGCUCCGUGUAGGAUAUUGGCCUGCUCUGGGUCGAGAAGGACAUGAGGAUCACCCAUGUAUGUUAUUAUCACGCGUGGCGCAU [Design 80] (Eterna round: R96, puzzle: Exclusion NG 1)

>  <targetSystem>
MS2 coat protein

>  <endpointName>
apparent KD of MS2 coat protein

>  <valueObserved>
29.3

$$$$

Where do these numbers come from? They come from the supplement of paper PMC9170038.
